system: barnyardgrass (Echinochloa crus-galli); assay: Test A preemergence; format: in vivo; conditions: Echinochloa crus-galli, pre-emergence, 240 h, 500 g ai/ha, preemergence; 0 to 100 scale, 0 = no effect, 100 = complete control; read-out: Plant response rating, Barnyardgrass
Experimental readout: pest or weed control at 500 g/ha (%)
Field format: number, assumed %, no unit text.

stdin: Consider the compound CN1C[C@H](c2ccc(C(F)(F)F)cc2)[C@@H](C(=O)Nc2ccccc2C(F)(F)F)C1=O and give its recorded pest or weed control at 500 g/ha.
stdout: 90

stdin: Consider the compound CSc1ccccc1NC(=O)[C@H]1C(=S)NC[C@@H]1c1ccc(C)c(C)c1 and give its recorded pest or weed control at 500 g/ha.
stdout: 90

stdin: Consider the compound Cc1ccc([C@H]2CNC(=S)[C@@H]2C(=O)Nc2cccc(F)c2C)cc1C and give its recorded pest or weed control at 500 g/ha.
stdout: 100

stdin: Consider the compound Cc1ccc([C@H]2CNC(=O)[C@@H]2C(=O)Nc2cccc(F)c2F)s1 and give its recorded pest or weed control at 500 g/ha.
stdout: 0

stdin: Consider the compound CN1C[C@H](c2ccc(C(F)(F)F)cc2)[C@@H](C(=O)Nc2ccccc2F)C1=O and give its recorded pest or weed control at 500 g/ha.
stdout: 90

stdin: Consider the compound CN1C[C@H](c2ccc3c(c2)CCC3)[C@@H](C(=O)Nc2ccccc2S(C)(=O)=O)C1=O and give its recorded pest or weed control at 500 g/ha.
stdout: 90

stdin: Consider the compound CS(=O)(=O)c1ccccc1NC(=O)[C@H]1C(=O)NC[C@@H]1c1cccc2c1OC(F)(F)O2 and give its recorded pest or weed control at 500 g/ha.
stdout: 100

stdin: Consider the compound Cc1ccc([C@H]2CNC(=O)[C@@H]2C(=O)Nc2cccc(F)c2F)c(F)c1 and give its recorded pest or weed control at 500 g/ha.
stdout: 100

---

system: redroot pigweed (Amaranthus retroflexus); experiment: Test G Post-Emergence Protocol; assay type: in vivo; details: Amaranthus retroflexus, post-emergence, 312 h, 250 g ai/ha, evaluated after 13 days, read-out: damage to plant, Pigweed, Redroot (100=total damage to plant; 0=no damage to plant)
Give measured pest or weed control at 250 g/ha for each item. Keep answers brief.
Field format: number, assumed %, no unit text.

stdin: # assay system redroot pigweed (Amaranthus retroflexus): give pest or weed control at 250 g/ha of Cc1c(F)ccc(NC(=O)[C@@H]2C(=O)N(C)C[C@H]2c2ccc(C(F)(F)F)cc2)c1F (racemic)
stdout: 30

stdin: # assay system redroot pigweed (Amaranthus retroflexus): give pest or weed control at 250 g/ha of CN1C[C@@H](c2ccc(C(F)(F)F)cc2)[C@H](C(=O)Nc2cccc3cn[nH]c23)C1=O (racemic)
stdout: 30

stdin: # assay system redroot pigweed (Amaranthus retroflexus): give pest or weed control at 250 g/ha of CN1C[C@H](c2cccc(C#N)c2)[C@@H](C(=O)Nc2ccccc2F)C1=O (racemic)
stdout: 20

stdin: # assay system redroot pigweed (Amaranthus retroflexus): give pest or weed control at 250 g/ha of CN1C[C@@H](c2ccc(C(F)(F)F)cc2)[C@H](C(=O)Nc2cncnc2)C1=O (racemic)
stdout: 20

stdin: # assay system redroot pigweed (Amaranthus retroflexus): give pest or weed control at 250 g/ha of CN1C[C@@H](c2ccc(C(F)(F)F)cc2)[C@H](C(=O)Nc2ccc(F)cc2C(F)(F)F)C1=O (racemic)
stdout: 60

stdin: # assay system redroot pigweed (Amaranthus retroflexus): give pest or weed control at 250 g/ha of CN1C[C@@H](c2ccc(C(F)(F)F)cc2)[C@H](C(=O)Nc2n[nH]c(C(F)(F)F)n2)C1=O (racemic)
stdout: 20

stdin: # assay system redroot pigweed (Amaranthus retroflexus): give pest or weed control at 250 g/ha of Cc1nc(F)ccc1[C@@H]1CN(C)C(=O)[C@H]1C(=O)Nc1cccc(F)c1F (racemic)
stdout: 0
